src = PubChem BioAssay

Reported z-score by item:
Experiment Summary: basal MM1S mitochondrial membrane potential changes, profiling panel, cell-based, JC-1 fluorescence, 24 h, 100 nL compound (AID 1170); further: test concentration not given here
Assay Context: higher = more signal

{"Mol Smiles": "COCCOC(=O)N1C(=O)[C@@]2(c3cc(C#CCNC(N)=O)ccc31)[C@H](c1ccc(OCCO)cc1)N1[C@H](c3ccccc3)[C@H](c3ccccc3)OC(=O)[C@H]1[C@@H]2C(=O)Nc1nc2ccccc2s1", "z-score": -1.56}
{"Mol Smiles": "COc1ccc([Si](C)(C)[C@@H]2[C@@H](CC(=O)N(CCO)Cc3ccccc3)O[C@]3(C(=O)N(Cc4cccc(N5CCC5=O)c4)c4ccccc43)[C@H]2C)cc1", "z-score": -0.523}
{"Mol Smiles": "CCOC(=O)C1=CC[C@@H](c2ccc(-c3ccc(OCc4ccccc4)cc3)c(OC)c2)N(S(=O)(=O)c2ccc(C)cc2)[C@H]1c1ccccc1", "z-score": -1.54}

* * *

Experiment Summary: compound binding in COS7 lysate, probe aLAP1, primary screen, cell lysate, small-molecule microarray (AID 1124);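 further: lysate comes from COS7 cells expressing LAP1 and is applied at 0.3 µg/mL; score merges spot fluorescence near 667 nm with signal-to-noise over triplicate slides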
Assay Context: probe aLAP1, fluorescence, higher = more signal
composite z-score values, listed per item

{"Compound": "COc1ccc([Si](C)(C)[C@H]2[C@H](CCO)O[C@@]3(C(=O)N(Cc4ccccc4)c4ccc(N5C(=O)c6cccc7cccc5c67)cc43)[C@@H]2C)cc1", "composite z-score": 1.06}
{"Compound": "Cc1ccc(S(=O)(=O)N[C@H]2COC(=O)CC=C[C@H](C)COC(=O)N[C@@H](C)C(=O)CC=C[C@@H]2C)cc1", "composite z-score": -0.314}
{"Compound": "C[C@@H]1NC(=O)[C@H](Cc2ccccc2)NC(=O)[C@@]23C(=O)N[C@@H](Cc4ccccc4)C2[C@H](C)[C@@]2(C)O[C@H]2C3/C=C/C/C=C\\CNC1=O (stereo partly drawn)", "composite z-score": -0.634}

* * *

composite z-score values for the compounds below.
Assay Target: Focal adhesion kinase 1 (Homo sapiens)
Experiment Summary: small-molecule microarray binders of FAK, primary screen, biochemical, 635/667 nm fluorescence, BSA, DTT (AID 1130);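 further: composite of spot emission at 667 nm and signal to noise over triplicate slides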
Assay Context: PTK2 binding, 635 nm fluorescence, higher = more signal
Assay Metric: composite z-score

{"Mol Smiles": "NC(=O)[C@H]1[C@@H]2C(=O)O[C@@H](c3ccccc3)[C@@H](c3ccccc3)N2[C@@H](c2ccc(O)cc2)[C@]12C(=O)Nc1ccc(C#CCCO)cc12", "Result": -0.574}
{"Mol Smiles": "COc1ccc(CCN2C(=O)[C@@]3(c4ccc([N+](=O)[O-])cc4)CC(=O)N(CC45CC6CC(CC(C6)C4)C5)[C@@H]3c3ccc(CO)cc32)cc1", "Result": 0.38}
{"Mol Smiles": "COc1ccc(CCNC(=O)[C@@]2(c3ccc([N+](=O)[O-])cc3)CC(=O)N(C(C)C)[C@@H]2c2ccc(CO)cc2)cc1", "Result": -0.637}

* * *

Here, each record is paired with measured composite z-score data.
System: Human papillomavirus type 1a protein E7 (residues 44-93)
Experiment Summary: HPV1a E7 fragment binders on microarrays, primary screen, biochemical, small-molecule microarray, residues 44-93, 635 nm fluorescence (AID 1108);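 further: E7 fragment applied at 1 µg/mL in TBST for 1 h at 4 C; score combines spot fluorescence with its signal to noise ratio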
Assay Context: small-molecule microarray binding, fluorescence 635 nm; higher = more signal
Assay Metric: composite z-score

{"Compound": "Cc1ccc(N2C(=O)c3ccccc3[C@@H](C(=O)NCc3ccccc3)[C@@H]2c2ccc(CO)cc2)nc1", "Assay Metric": "composite z-score", "Result": -0.752}
{"Compound": "CC1CC/C=C\\[C@H]2OC34C=CCN(Cn5nnc6ccccc65)C(=O)[C@H]3N(C(C)CO)C(=O)[C@@H]4C2C(=O)O1 (some centres undefined)", "Assay Metric": "composite z-score", "Result": -0.132}
{"Compound": "Cc1ccc(S(=O)(=O)c2cc3oc2CC[C@@H](CO)NC(=O)N(C)Cc2cn(nn2)C[C@H](Cc2ccccc2)NC3=O)cc1", "Assay Metric": "composite z-score", "Result": -0.398}
{"Compound": "COC(=O)C1=CC(c2ccc(CO)cc2)=CC(C2CC2)N(Cc2sc3ccccc3c2Cl)C=C1C(=O)OC (centres undefined)", "Assay Metric": "composite z-score", "Result": 1.29}
{"Compound": "CC[C@@H]1C=C(C(=O)O)[C@H](c2ccccc2)N1S(=O)(=O)c1ccc([N+](=O)[O-])cc1", "Assay Metric": "composite z-score", "Result": 0.672}
{"Compound": "CN(C)C(=O)[C@@]1(Cc2ccccc2N=[N+]=[N-])N=C(c2ccc(OCCCO)cc2)O[C@H]1c1ccccc1CN=[N+]=[N-]", "Assay Metric": "composite z-score", "Result": 0.646}
{"Compound": "CC(C)[C@H]1NC(=O)[C@@]23C(=O)N[C@@H](Cc4ccccc4)C2[C@H](C)[C@@]2(C)O[C@H]2C3/C=C/C/C=C\\CNC(=O)[C@H](C)NC1=O (some centres undefined)", "Assay Metric": "composite z-score", "Result": -0.473}
{"Compound": "CO[C@H]1O[C@H](CO)[C@@H](OC(=O)CCc2ccccc2)[C@@H]2OC(=O)[C@H](Cc3cccc(Br)c3)C/C=C/C[C@@H](Cc3cccc(Br)c3)C(=O)O[C@@H]12", "Assay Metric": "composite z-score", "Result": 0.234}
{"Compound": "COCCOC(=O)N1C(=O)[C@@]2(c3cc(C#CCCO)ccc31)[C@H](c1ccc(OCCO)cc1)N1[C@H](c3ccccc3)[C@H](c3ccccc3)OC(=O)[C@H]1[C@@H]2C(=O)NC[C@H](O)c1ccccc1", "Assay Metric": "composite z-score", "Result": 1.39}
{"Compound": "O=C1c2ccccc2[C@](Cc2ccccc2I)(C(=O)NCc2ccccc2)[C@H](c2ccc(CO)cc2)N1Cc1ccccc1C(F)(F)F", "Assay Metric": "composite z-score", "Result": -0.32}
{"Compound": "C[C@H]1COC(=O)[C@@H]2CCCN2C(=O)[C@@H](C)COC(=O)[C@@H]2CCCN2C1=O", "Assay Metric": "composite z-score", "Result": -0.663}
{"Compound": "O=C(CS)NCCCCCNC(=O)[C@H]1C[C@H]2C(=O)N[C@@H](Cc3ccccc3)C(=O)N2[C@H]1c1ccc(O)cc1", "Assay Metric": "composite z-score", "Result": 0.151}
{"Compound": "CN(C)CCCC[C@@H]1NC(=O)[C@@H]2C[C@H](C(=O)O)[C@H](c3ccc(O)cc3)N2C1=O", "Assay Metric": "composite z-score", "Result": 0.668}
{"Compound": "COCCOC(=O)N1C(=O)[C@@]2(c3cc(C#CC4=CCCCC4)ccc31)[C@H](C(=O)NC[C@H](O)c1ccccc1)[C@H]1C(=O)O[C@H](c3ccccc3)[C@H](c3ccccc3)N1[C@@H]2c1ccc(OCCO)cc1", "Assay Metric": "composite z-score", "Result": 1.41}

* * *

System: Plasmodium falciparum Sir2 (PF13_0152, Sir2A)
Experiment Summary: pfSir2 binders on small-molecule microarrays, primary screen, biochemical, small-molecule microarray, 635 nm fluorescence (AID 1098);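 further: score merges spot fluorescence intensity with its signal-to-noise ratio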
Assay Context: small-molecule microarray binding, fluorescence 635 nm; higher = more signal

{"Compound": "O=C(NCC(O)CO)[C@]1(Cc2ccccc2)N=C(c2ccc(OCCCO)cc2)O[C@@H]1c1ccccc1 (some centres undefined)", "Assay Target": "Plasmodium falciparum Sir2 (PF13_0152, Sir2A)", "composite z-score": 1.51}
{"Compound": "O=C1C2C=CC(C(O)Cc3ccccc3)N(Nc3ccc([N+](=O)[O-])cc3)C2C(=O)N1c1ccccc1 (centres undefined)", "Assay Target": "Plasmodium falciparum Sir2 (PF13_0152, Sir2A)", "composite z-score": 1.04}
{"Compound": "C[C@H]1COC(=O)[C@@H]2CCCN2C(=O)[C@@H](C)COC(=O)[C@@H]2CCCN2C1=O", "Assay Target": "Plasmodium falciparum Sir2 (PF13_0152, Sir2A)", "composite z-score": -0.0175}
{"Compound": "COCCCNC(=O)[C@@H]1c2ccccc2C(=O)N(CC23CC4CC(CC(C4)C2)C3)[C@H]1c1ccc(CO)cc1", "Assay Target": "Plasmodium falciparum Sir2 (PF13_0152, Sir2A)", "composite z-score": 0.0881}

* * *

Experiment Summary: small-molecule binders of probe aNOTCH3, primary screen, biochemical, small-molecule microarray, 635/667 nm fluorescence (AID 1120);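 further: probe is a biotin-tagged antibody raised against NOTCH3 rather than NOTCH3 protein; score merges spot fluorescence near 667 nm with spot signal to noise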
Assay Context: higher = more signal
Assay Metric: composite z-score

{"Mol Smiles": "CO[C@H]1COC(=O)CC=C[C@H](C)[C@@H](OC)COC(=O)[C@H](Cc2ccccc2)NC(=O)CC=C[C@@H]1C", "Result": -0.132}
{"Mol Smiles": "CC(C)[Si]1(C(C)C)O[C@@H](c2ccccc2)c2cc(C3CC3)nc(-c3ccc(Oc4ccccc4)cc3)c21", "Result": -0.157}
{"Mol Smiles": "COc1ccc([Si](C)(C)[C@@H]2[C@@H](CC(=O)N(CCO)Cc3ccccc3)O[C@]3(C(=O)N(Cc4cccc(N5CCC5=O)c4)c4ccccc43)[C@H]2C)cc1", "Result": -0.0647}
{"Mol Smiles": "[N-]=[N+]=NCc1ccccc1C[C@@]1(C(=O)O)N=C(c2ccc(OCCCO)cc2)O[C@@H]1c1ccccc1N=[N+]=[N-]", "Result": 0.328}
{"Mol Smiles": "NC(=O)NCC#Cc1ccc2c(c1)[C@]1(C(=O)N2)[C@H](C(N)=O)[C@H]2C(=O)O[C@H](c3ccccc3)[C@H](c3ccccc3)N2[C@@H]1c1ccccc1OCCO", "Result": 0.121}
{"Mol Smiles": "O=C(O)[C@@H]1Cc2c([nH]c3ccccc23)[C@@H](c2ccccc2)N1", "Result": -0.082}
{"Mol Smiles": "O=C(CS)NCCCCCNC(=O)[C@H]1C[C@H]2C(=O)N3CCC[C@H]3C(=O)N2[C@H]1c1ccc(O)cc1", "Result": -0.229}
